Here the recorded IC50 is given for each entry.
biological target: BIR2 domain of XIAP (Homo sapiens (Human), UniProt P98170, C202A/C213G); test: TR-FRET assay for BIR2 (inhibition of binding of XIAP BIR2 domain to SMAC-derived Peptide A); details: 6x His-tagged BIR2 domain (aa 124-240 of XIAP) 10 nM, Peptide A 20 nM, TR-FRET; read-out: IC50 BIR2
Sequence (P98170 124-240 with tags or gaps C202A/C213G limits assumed): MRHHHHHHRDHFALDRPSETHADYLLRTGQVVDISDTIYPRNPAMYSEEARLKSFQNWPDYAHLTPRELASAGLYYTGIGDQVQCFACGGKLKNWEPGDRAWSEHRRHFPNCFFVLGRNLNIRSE
Counter-ions that a name gives are not always drawn.
Reply with the number, then its unit.

Known results for compounds:
1) CN[C@@H](C)C(=O)N[C@H]1CN(C(=O)Cc2nnn[nH]2)c2ccccc2N(Cc2c(C)ccc3ccccc23)C1=O [Example 96b]; 71 nM
2) CN[C@@H](C)C(=O)N[C@H]1CN(C(=O)CS(C)(=O)=O)c2cc(C(F)(F)F)ccc2N(Cc2c(C3CC3)cnc3ccccc23)C1=O; 49.3 nM
3) CN[C@@H](C)C(=O)N[C@H]1CN(C(=O)CC(N)=O)c2ccccc2N(Cc2c(C)ccc3ccccc23)C1=O [Example 11, hydrochloride]; 426 nM
4) CN[C@@H](C)C(=O)N[C@H]1CN(C(=O)CS(C)(=O)=O)c2cc(C#N)ccc2N(Cc2nn(-c3ccccc3C#N)c3ccccc23)C1=O; 53.9 nM
5) CN[C@@H](C)C(=O)N[C@H]1CN(C(=O)c2ccc(F)cc2)c2cc(Cl)ccc2N(Cc2c(OC)ccc3c(Br)cccc23)C1=O [Example 126, hydrochloride]; 17.2 nM
6) CN[C@@H](C)C(=O)N[C@H]1CN(C(=O)CCCC(C)=O)c2ccccc2N(Cc2c(OC)ccc3cc(C(=O)O)ccc23)C1=O [Example 47, hydrochloride]; 20 nM
7) CN[C@@H](C)C(=O)N[C@H]1CN2C(=O)CNC(=O)c3ccc4c(c(OC)ccc4c3)CN(C1=O)c1ccccc12 [Example 108, hydrochloride]; 17.2 nM
8) CN[C@@H](C)C(=O)N[C@H]1CN(C(=O)c2ccccc2[C@H](C)O)c2ccccc2N(Cc2c(C)ccc3ccccc23)C1=O (stereo in doubt) [Example 148]; 40.1 nM

(Q) Give the reported IC50 for CN[C@@H](C)C(=O)N[C@H]1CN(C(=O)c2ccc(F)cc2)c2cc(C#N)ccc2N(Cc2c(OC(F)F)ccc3ccccc23)C1=O [Example 151, hydrochloride] (system: BIR2 domain of XIAP (Homo sapiens (Human), UniProt P98170, C202A/C213G)).
(A) 28.4 nM

(Q) # value lookup — system BIR2 domain of XIAP (Homo sapiens (Human), UniProt P98170, C202A/C213G), readout IC50, item CN[C@@H](C)C(=O)N[C@H]1CN2C(=O)CCCCNC(=O)c3ccc4c(c(OC)ccc4c3)CN(C1=O)c1ccccc12 [Example 54, hydrochloride]
(A) 18 nM

(Q) Give BIR2 domain of XIAP (Homo sapiens (Human), UniProt P98170, C202A/C213G) IC50 for CN[C@@H](C)C(=O)N[C@H]1CN(C(=O)c2ccc(N)cc2)c2ccccc2N(Cc2noc3ccccc23)C1=O [Example 71, hydrochloride]
(A) 64 nM

(Q) Query IC50 on BIR2 domain of XIAP (Homo sapiens (Human), UniProt P98170, C202A/C213G) for CN[C@@H](C)C(=O)N[C@H]1CN(C(C)=O)c2cc(C(F)(F)F)ccc2N(Cc2nn(-c3ccccc3C#N)c3ccccc23)C1=O [Example 177, hydrochloride]
(A) 35.3 nM

====

Quick reference: pIC50 of the listed items.
target: BIR2 domain of XIAP (Homo sapiens (Human), UniProt P98170, C202A/C213G); assay: TR-FRET assay for BIR2 (inhibition of binding of XIAP BIR2 domain to SMAC-derived Peptide A); details: 6x His-tagged BIR2 domain (aa 124-240 of XIAP) 10 nM, Peptide A 20 nM, TR-FRET; read-out: IC50 BIR2
Structures can show the parent of a compound that is named as a salt.
Formally, pIC50 is defined as -log10 of the concentration c, with c in mol/L.

Here is how some compounds turned out for pIC50.
1) COc1ccc2ccccc2c1CN1C(=O)[C@@H](NC(=O)[C@H](C)N)CN(C(=O)c2ccc(N)cc2)c2ccccc21; 8.15
2) CN[C@@H](C)C(=O)N[C@H]1CN(C(=O)c2ccc(C)cc2)c2ccccc2N(Cc2c(OC)ccc3c(Br)cccc23)C1=O [Example 93, hydrochloride]; 7.74
3) CCN[C@@H](C)C(=O)N[C@H]1CN(C(=O)c2ccc(C(C)=O)cc2)c2ccccc2N(Cc2c(OC)ccc3cc(Br)ccc23)C1=O [Example 80, hydrochloride]; 7.85
4) CN[C@@H](C)C(=O)N[C@H]1CN(C(=O)c2ccccc2[C@H](C)O)c2ccccc2N(Cc2c(C)ccc3ccccc23)C1=O (stereo in doubt) [Example 153]; 7.28
5) CN[C@@H](C)C(=O)N[C@H]1CN(C(=O)c2ccc(N)cc2)c2cc(Cl)ccc2N(Cc2c(OC)ccc3c(Br)cccc23)C1=O [Example 123, hydrochloride]; 8.17

(Q) For CN[C@@H](C)C(=O)N[C@H]1CN(C(C)=O)c2cc(C(F)(F)F)ccc2N(Cc2c(C3CC3)ccc3c(C#N)cccc23)C1=O , what is its reported pIC50?
(A) 7.52

(Q) Bench note: what pIC50 did CN[C@@H](C)C(=O)N[C@H]1CN(C(=O)c2ccc3cn[nH]c3c2)c2ccccc2N(Cc2c(C)ccc3ccccc23)C1=O show?
(A) 7.74

(Q) What does the data say about its pIC50? Entry: CN[C@@H](C)C(=O)N[C@H]1CN(C(=O)COCCOC)c2ccccc2N(Cc2c(C)ccc3ccccc23)C1=O [Example 10, hydrochloride]
(A) 6.44

(Q) Field request: pIC50 | item: CN[C@@H](C)C(=O)N[C@H]1CN(C(=O)c2ccc(OC)cc2)c2ccccc2N(Cc2c(C)ccc3ccccc23)C1=O [Example 96l]
(A) 7.43

(Q) Need pIC50, item CN[C@@H](C)C(=O)N[C@H]1CN(C(=O)c2ccc(C#N)cc2)c2cc(Cl)ccc2N(Cc2c(OC(F)F)ccc3ccccc23)C1=O [Example 139, hydrochloride]
(A) 7.46

(Q) Returns the measured pIC50 for the input compound. Input: CN[C@@H](C)C(=O)N[C@H]1CN(C(=O)c2ccc(C)cc2)c2ccccc2N(Cc2c(C)ccc3ccccc23)C1=O [Example 96k]
(A) 7.42

(Q) Request the reported pIC50 associated with CN[C@@H](C)C(=O)N[C@H]1CN(C(=O)C23CC4CC(CC(C4)C2)C3)c2ccccc2N(Cc2c(OC)ccc3cc(Br)ccc23)C1=O [Example 34, hydrochloride]
(A) 7.48

====

target: BIR3 domain of XIAP (Homo sapiens (Human)); experiment: TR-FRET assay for BIR3 (inhibition of binding of XIAP BIR3 domain to SMAC-derived Peptide A); details: 6x His-tagged BIR3 domain (aa 241-356 of XIAP) 10 nM, Peptide A 20 nM, TR-FRET
Counter-ions that a name gives are not always drawn.
Some compounds, each annotated with its measured pIC50.
Value format note: pIC50 is -log10 of concentration (mol/L); just state the number.

Worked examples, 4 compounds total:
1. CN[C@@H](C)C(=O)N[C@H]1CN2CCNC(=O)c3ccc4c(c(OC)ccc4c3)CN(C1=O)c1ccccc12 [Example 59, hydrochloride]; 4.50
2. CN[C@@H](C)C(=O)N[C@H]1CN(C(=O)CCNC(=O)OCC2c3ccccc3-c3ccccc32)c2ccccc2N(Cc2c(OC)ccc3cc(C(=O)OC)ccc23)C1=O [Example 13r]; 4.33
3. CN[C@@H](C)C(=O)N[C@H]1CN(C(=O)c2ccc(C(C)=O)cc2)c2ccccc2N(Cc2c(OC)ccc3cc(C(=O)OC)ccc23)C1=O [Example 43, hydrochloride]; 4.36
4. CN[C@@H](C)C(=O)N[C@H]1CN2C(=O)CCNC(=O)c3ccc4c(c(OC)ccc4c3)CN(C1=O)c1ccccc12 [Example 63, hydrochloride]; 4.37

Field: next compound
(Q) Give BIR3 domain of XIAP (Homo sapiens (Human)) pIC50 for CN[C@@H](C)C(=O)N[C@H]1CN(C(=O)c2ccc(F)cc2)c2ccccc2N(Cc2c(C)ccc3ccccc23)C1=O [Example 96i]
(A) 4.32

====

biological target: BIR3 domain of XIAP (Homo sapiens (Human), UniProt P98170); assay: TR-FRET assay for BIR3 (inhibition of binding of XIAP BIR3 domain to SMAC-derived Peptide A); details: 6x His-tagged BIR3 domain (aa 241-356 of XIAP) 10 nM, Peptide A 20 nM, TR-FRET
Sequence (P98170 241-356 with tags or gaps limits assumed): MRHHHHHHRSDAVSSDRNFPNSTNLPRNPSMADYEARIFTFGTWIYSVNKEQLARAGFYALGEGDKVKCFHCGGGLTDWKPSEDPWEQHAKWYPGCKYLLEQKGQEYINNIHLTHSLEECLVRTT
pIC50: −log10 of the molar value. Counter-ions that a name gives are not always drawn.
# pIC50 per entry

1) CN[C@@H](C)C(=O)N[C@H]1CN(S(=O)(=O)CS(C)(=O)=O)c2ccccc2N(Cc2c(C)ccc3ccccc23)C1=O [Example 18, trifluoroacetate]; < 4.26
2) CN[C@@H](C)C(=O)N[C@H]1CN(Cc2ccc(C#N)cc2)c2ccccc2N(Cc2c(OC)ccc3cc(Br)ccc23)C1=O [Example 78, trifluoroacetate]; 4.77

(Q) Field: pIC50 (BIR3 domain of XIAP (Homo sapiens (Human), UniProt P98170)). Entry: CN[C@@H](C)C(=O)N[C@H]1CN(S(=O)(=O)N(C)C)c2ccccc2N(Cc2c(C)ccc3ccccc23)C1=O [Example 100, hydrochloride]
(A) < 4.26

(Q) Observed pIC50 on BIR3 domain of XIAP (Homo sapiens (Human), UniProt P98170) for CN[C@@H](C)C(=O)N[C@H]1CN(C(=O)c2ccc(N)cc2)c2ccccc2N(Cc2c(OCCF)ccc3ccccc23)C1=O [Example 178, hydrochloride] , please.
(A) 4.79

(Q) Tell me reported pIC50 for CC[C@H](NC)C(=O)NC1C(=O)N(Cc2c(OC)ccc3ccccc23)c2ccccc2N(CC23CC4CC(CC(C4)C2)C3)C1=O (stereo partly drawn) , tested with BIR3 domain of XIAP (Homo sapiens (Human), UniProt P98170).
(A) < 4.26

(Q) Record lookup: for BIR3 domain of XIAP (Homo sapiens (Human), UniProt P98170), what pIC50 belongs to CN[C@@H](C)C(=O)N[C@@H]1C(=O)N(CC(=O)Nc2ccccc2)c2ccccc2N(C(C)=O)[C@H]1C [Example 191, hydrochloride] ?
(A) < 4.26
